assay-summary: Cytotoxicity against human Bel7402 cells after 48 hrs by MTT assay
Type: cell-based, Bel-7402
run-conditions: human, bel-7402, 48 h
recorded-endpoint: Activity

>>> endpoint_value("CC1=CC[C@@]23CC[C@@H]([C@@](C)(/C=C/C=C(\\C)C(=O)OCC(O)CO)OC2=O)[C@@]3(O)CC1 (some centres undefined)")
"Not Active"
>>> endpoint_value("CC(=O)O[C@]12CCC(C(=O)O)=CC[C@]13CC[C@H]2[C@@](C)(/C=C/C=C(\\C)C(=O)O)OC3=O [PSEUDOLARIC ACID C2]")
"Not Active"
>>> endpoint_value("COC(=O)C1=CC[C@@]23CC[C@@H]([C@@](C)(/C=C/C=C(\\C)C(=O)OCC(O)CO)OC2=O)[C@@]3(O)CC1 (some centres undefined)")
"Not Active"
>>> endpoint_value("CC1=CC[C@@]23CC[C@@H]([C@@](C)(/C=C/C=C(\\C)C(=O)O)OC2=O)[C@@]3(O)CC1 [DEACETYLPSEUDOLARIC ACID A]")
"Not Active"

###

System: HL-60
assay-summary: Cytotoxicity against human HL60 cells after 48 hrs by MTT assay
Format: cell-based
run-conditions: human, hl-60, 48 h
recorded-endpoint: Activity

>>> endpoint_value("COC(=O)C1=CC[C@@]23CC[C@@H]([C@@](C)(/C=C/C=C(\\C)C(=O)O)OC2=O)[C@@]3(O)CC1")
"Not Active"
>>> endpoint_value("CC1=CC[C@@]23CC[C@@H]([C@@](C)(/C=C/C=C(\\C)C(=O)OCC(O)CO)OC2=O)[C@@]3(O)CC1 (stereo partly drawn)")
"Not Active"
>>> endpoint_value("CC1=CC[C@@]23CC[C@@H]([C@@](C)(/C=C/C=C(\\C)C(=O)O[C@@H]4O[C@H](CO)[C@@H](O)[C@H](O)[C@H]4O)OC2=O)[C@@]3(O)CC1")
"Not Active"

###

System: HL-60
assay-summary: Cytotoxicity against human HL60 cells after 48 hrs by MTT assay
Type: cell-based
run-conditions: human, hl-60, 48 h
recorded-endpoint: Activity

>>> endpoint_value("CC(=O)O[C@]12CCC(C(=O)O)=CC[C@]13CC[C@H]2[C@@](C)(/C=C/C=C(\\C)C(=O)O)OC3=O [PSEUDOLARIC ACID C2]")
"Not Active"
>>> endpoint_value("COC(=O)C1=CC[C@@]23CC[C@@H]([C@@](C)(/C=C/C=C(\\C)C(=O)OCC(O)CO)OC2=O)[C@@]3(O)CC1 (stereo partly drawn)")
"Not Active"
>>> endpoint_value("CC1=CC[C@@]23CC[C@@H]([C@@](C)(/C=C/C=C(\\C)C(=O)O)OC2=O)[C@@]3(O)CC1 [DEACETYLPSEUDOLARIC ACID A]")
"Not Active"
